Data credit: PubChem BioAssay AID1996

# testConditions: buffer; pH 7.4; 200.0 µM

| molecule | solubility kinetic |
| --- | --- |
| O=C(COC(=O)c1ccccc1Cl)NC1CCCCCCC1 | 34.1 µg/mL |
| CC1CCC2(CC1)NC(=O)N(CC(=O)NC1CCCCC1C)C2=O (centres undefined) | > 50.3 µg/mL |
| N#CCCN(Cc1cccnc1)C(=S)NC(=O)c1ccccc1 | > 48.7 µg/mL |
| CCN(c1ccccc1)S(=O)(=O)c1cc(NC(=O)CN2CCN(C)CC2)ccc1Cl.O=C(O)C(=O)O | > 81.2 µg/mL |
| CCCC(=O)Nc1nc(C)c(C(C)=O)s1 | > 33.9 µg/mL |
| Cc1ccc2nc3c(c(Nc4ccccc4)c2c1)CCC3.Cl | 35 µg/mL |
| O=[N+]([O-])c1ccc2c(c1)/C(=N\O)c1ccccc1-2 | 0.5 µg/mL |
| CC(=O)c1ccc(N2C(=O)CC(N3CCN(S(=O)(=O)c4ccc(C)c(C)c4)CC3)C2=O)cc1 (centres undefined) | 15 µg/mL |
| Cc1cc(-c2nnc(CCC(=O)NCc3ccc(F)c(F)c3)o2)no1 | > 52.2 µg/mL |
| O=S(=O)(Nc1cccc2cccnc12)c1ccccc1 | 3.9 µg/mL |
| COc1ccc(CCNC(=O)c2oc3ccc(OC)cc3c2C)cc1 | 2.3 µg/mL |
| CC(C)N(Cc1nc(COc2ccccc2)no1)Cc1nccn1C | 48.2 µg/mL |
| O=C1CSC(=S)N1 | > 20 µg/mL |
| C=CCc1cccc(C=Nc2c[nH]c(=O)[nH]c2=O)c1O | 8.4 µg/mL |
| COCCN(CC(=O)Nc1cccc(C)c1C)C(=O)C1(c2ccccc2)CC1 | > 57.1 µg/mL |
| COc1ccc(CN(C)C(C)C(=O)Nc2cccc3ccccc23)cc1 (centres undefined) | 7.8 µg/mL |
| O=C(Nc1ccc(SC(F)F)cc1)c1ccc(F)cc1 | 1.3 µg/mL |
| O=C(Nc1ccncc1)c1c(F)c(F)c(F)c(F)c1F | 41.6 µg/mL |
| COc1ccc2nc(NC(=O)NC3CCCCC3)sc2c1 | < 0.2 µg/mL |
| O=C(c1ccc(Cn2cc([N+](=O)[O-])cn2)o1)N1CCCCCC1 | > 47.7 µg/mL |
| O=C(Nc1ccc2ccccc2c1)c1cc(F)c(F)cc1Cl | < 0.7 µg/mL |
| CN1C(=O)NC(c2ccc([N+](=O)[O-])cc2)C2=C1CC(C)(C)CC2=O (centres undefined) | > 49.4 µg/mL |
| O=C(O)CCN1C(=O)C2C3c4ccccc4C(c4ccccc43)C2C1=O (centres undefined) | > 52.1 µg/mL |
| Nc1cc(=O)[nH]c(=O)n1CCc1ccccc1 | > 34.7 µg/mL |

* * *

# testConditions: buffer; pH 7.4; 200.0 µM
measuredProperty: log10 solubility kinetic (log10 of the value in µg/mL)

| compound | log10 solubility kinetic |
| --- | --- |
| COc1ccc(NC(=O)CN(C)C(=O)Cc2ccc3c(c2)CCC3)cc1 | 1.09 |
| O=C(NC1CSCC1OC(=O)c1ccccc1)c1ccccc1 (stereo not given) | 1.42 |
| O=S(=O)(NCCN1CCOCC1)c1cc(Cl)ccc1Cl | 1.62 |
| CCc1nc2sc(C(C)=O)c(N)c2c2c1CCCC2 | 0.04 |
| O=C(CCCc1nc(-c2ccccc2)no1)NC1CCCCC1 | 1.14 |
| COc1ccc2c(c1)C(C)CC(C)(C)N2C(=O)Nc1ccccc1 (stereo not given) | 1.13 |
| O=C(NCc1ccc(F)cc1)C(Cc1ccccc1)n1cccc1 (stereo not given) | 1.51 |
| O=C(COC(=O)c1ccc(Cl)nc1)c1ccc2c(c1)OCCO2 | 1.17 |
| CCOC(=O)C1=C(C)NC(=O)CC1c1cc2c(cc1[N+](=O)[O-])OCO2 (stereo not given) | 0.52 |
| COc1ccc(Cl)cc1NC(=O)Nc1cc(C)on1 | -0.05 |
| CC(C)(C)c1ccc(CSc2nc(N)cc(=O)[nH]2)cc1 | 0.81 |
